The reported numbers originate from paper PMC12062478.

Target: P2X7 (Homo sapiens)
Construct: expressed in transfected cells
Sequence (Q99572 1-595): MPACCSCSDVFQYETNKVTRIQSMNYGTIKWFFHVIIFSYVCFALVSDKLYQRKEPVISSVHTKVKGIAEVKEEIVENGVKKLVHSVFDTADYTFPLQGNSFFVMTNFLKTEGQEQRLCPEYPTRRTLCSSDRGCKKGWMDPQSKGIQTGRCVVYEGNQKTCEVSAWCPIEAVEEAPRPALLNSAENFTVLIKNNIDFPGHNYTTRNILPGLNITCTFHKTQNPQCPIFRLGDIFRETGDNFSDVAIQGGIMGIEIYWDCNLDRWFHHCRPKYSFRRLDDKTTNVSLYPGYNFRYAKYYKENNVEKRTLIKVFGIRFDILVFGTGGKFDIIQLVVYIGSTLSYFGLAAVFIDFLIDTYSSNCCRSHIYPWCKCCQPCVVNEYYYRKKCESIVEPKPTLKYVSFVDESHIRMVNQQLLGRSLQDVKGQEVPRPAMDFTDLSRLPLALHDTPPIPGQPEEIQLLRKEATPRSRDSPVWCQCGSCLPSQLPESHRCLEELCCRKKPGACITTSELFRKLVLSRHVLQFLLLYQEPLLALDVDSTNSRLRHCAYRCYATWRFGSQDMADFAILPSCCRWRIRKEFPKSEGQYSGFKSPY
Test: ATP-induced YO-PRO-1 dye uptake in HEK-hP2X7 cells
Assay type: cell-based
Conditions: screen for potential negative allosteric modulators; compound 10 µM injected 60 s before ATP
metric: P2X7 response (% of control)

Query block: Which P2X7 response (% of control) is listed for C[C@H]1Oc2cc3c(-c4c(O)cc(O)c5c(O)c6c(cc45)O[C@H](C)[C@@H](C)C6=O)c(O)cc(O)c3c(O)c2C(=O)[C@@H]1C ?
Result block: 12.08 % of control

Query block: Entry COc1ccc2c(c1OC)CN1CCc3cc4c(cc3C1C2)OCO4 (centres unmarked) [Tetrahydroberberine] has what P2X7 response (% of control)?
Result block: 26.9 % of control

Query block: For COc1cc2c(c3c1c(=O)c1ccccc1n3C)C=CC(C)(C)O2 , what is its reported P2X7 response (% of control)?
Result block: 1.05 % of control

Query block: Field request: P2X7 response (% of control) | item: COc1ccc2c(c1OC)CN1CCc3cc4c(cc3[C@@H]1C2)OCO4 [Hydroberberine]
Result block: 9.75 % of control

Query block: What does the record list as P2X7 response (% of control) for COc1cc([C@@H]2c3cc4c(c(O)c3C[C@H]3COC(=O)[C@@H]32)OCO4)cc(OC)c1OC ?
Result block: 31.98 % of control

Query block: Suppose we examine the compound CO[C@@H]1/C=C/O[C@@]2(C)Oc3c(C)c(O)c4c(c3C2=O)C(=N[C@@H]2CC[C@@H](O)O[C@H]2C)C=C(NC(=O)/C(C)=C\C(=O)[C@@H]2C[C@@H]2[C@H](O)[C@@H](C)[C@@H](O)[C@@H](C)[C@H](OC(C)=O)[C@@H]1C)C4=O ; what P2X7 response (% of control) value has been reported?
Result block: 47.05 % of control

Query block: Quick one: P2X7 response (% of control) of CCCn1cc2c3c(cccc31)[C@H]1C[C@@H](C)CN(C)[C@@H]1C2.O=C(O)C(O)C(O)C(=O)O ?
Result block: 29.09 % of control

Query block: Returns the measured P2X7 response (% of control) for the input compound. Input: NC(=O)C#CC(N)=O
Result block: 15.18 % of control

Query block: For the compound CO[C@H]1[C@@H](O)[C@@H](C)O[C@@H](OC2CCC3(C)C(CCC4C3C(O)CC3(C)C(C5=CC(=O)OC5)CCC43O)C2)[C@@H]1O (some centres unmarked) , what P2X7 response (% of control) is on record?
Result block: 38.95 % of control

Query block: Report P2X7 response (% of control) for COc1cc2c(cc1O)C[C@H]1c3c(cc(OC)c(O)c3-2)CCN1C please.
Result block: 49.59 % of control

Query block: I'd like to know its P2X7 response (% of control). The compound in question is C[C@@H]1C[C@H](C)C[C@H](C)[C@@H](O)CC(=O)O[C@H]([C@@H]2CCC[C@H]2C(=O)O)C/C=C/C=C(/C#N)[C@H](O)[C@@H](C)C1
Result block: 42.93 % of control
